Recorded growth values for a group of molecules are listed next.
System: DU-145 prostate
test: NCI-60 one-dose screen, 48 h (100 = growth as untreated, 0 = no growth, -100 = all killed)
condition label: 10 µM unless noted
Compounds without any hit were thinned out: in the full panel of roughly 83,000, 20% have a hit.
Just the number in %, nothing appended.

Known growth results, listed for orientation:
molecule=CN(C)C(=S)SCN1C(=O)c2ccc([N+](=O)[O-])cc2S1(=O)=O readout_number=94.3
molecule=O=S(=O)(/N=C1C=C/C(=N\S(=O)(=O)c2ccccc2)c2ccccc2\1)c1ccccc1 readout_number=117
molecule=O=C(O)c1ccccc1Oc1cc(-c2ccco2)nc(OCCBr)n1 readout_number=104
molecule=Cc1ccc(C)c2c1sc1nc3nc4sc5ccccc5n4c(=N)c3c(=O)n12 readout_number=108
molecule=C=CC(=O)N1CC2(CC(n3nc(-c4ccc(Oc5ccccc5)cc4)c4c(N)ncnc43)C2)C1 readout_number=11

Prompt: Bench note: what growth did COc1ccc(C2=NOC(CC(=O)N(CCO)CCO)C2)cc1OC1CCCC1 (stereo not drawn) show?
Completion: 105

Prompt: Next molecule up: COc1ccc(/C=C2\Oc3cc(C)c(Cl)cc3C2=O)cc1OC
Completion: 104

Prompt: Next molecule up: COc1ccc(/C=C2\SC(=O)N(CN3CCN(c4cc5c(cc4F)c(=O)c(C(=O)O)cn5C4CC4)CC3)C2=O)cc1
Completion: 109
